Hello, the source for this data is patent US20260137790A1, in case you need it.

# assay_conditions: human, in vivo, sc, 0.1 mg, M1 Cmax, mean
Starred links: 1 amine or outer side, 2 acyl side, 3 side chain; linkers in the order of their positions; H or OH if unused. Positions of bridges follow the written chain, without caps; N, C: chain ends. Non-standard residues stand in square brackets, D forms with d. Residues, ends and D or L forms follow the SMILES beside them. Groups on a side chain read outwards from the residue. *: point of attachment. X1 = CC(=O)NCCCC[C@H](NC(=O)CC[C@H](N)C(N)=O)C(=O)*; εLys = N[C@@H](CCCCN[*:1])C(=O)[*:2]; Dab = NCC[C@H](N)C(=O)O
reported_property: Cmax (ng/mL)
Field format: number, assumed ng/mL, no unit text.

Name the recorded Cmax of the item CC[C@H](C)[C@@H]1NC(=O)[C@H](Cc2ccccc2)NC(=O)[C@@H](N)CSSC[C@@H](C(=O)N2CCC[C@H]2C(=O)N[C@@H](CCNC(=O)[C@@H](N)CCCCNC(=O)[C@H](CCCCNC(C)=O)NC(=O)CC[C@H](N)C(N)=O)C(=O)NCC(N)=O)NC(=O)[C@H](CC(N)=O)NC(=O)[C@H](CCC(N)=O)NC1=O [Compound M1] (H-CFIQNCP[Dab]([εLys-X1])G-NH2; disulfide 1-6) in your answer.
0.93

---

# assay_conditions: human, in vivo, sc, 0.3 mg, M1 AUC, geometric mean
Starred links: 1 amine or outer side, 2 acyl side, 3 side chain; linkers in the order of their positions; H or OH if unused. Positions of bridges follow the written chain, without caps; N, C: chain ends. Non-standard residues stand in square brackets, D forms with d. Residues, ends and D or L forms follow the SMILES beside them. Groups on a side chain read outwards from the residue. *: point of attachment. X1 = CC(=O)NCCCC[C@H](NC(=O)CC[C@H](N)C(N)=O)C(=O)*; εLys = N[C@@H](CCCCN[*:1])C(=O)[*:2]; Dab = NCC[C@H](N)C(=O)O
reported_property: AUC
Answer with the figure and its unit, nothing else.

Name the recorded AUC of the item CC[C@H](C)[C@@H]1NC(=O)[C@H](Cc2ccccc2)NC(=O)[C@@H](N)CSSC[C@@H](C(=O)N2CCC[C@H]2C(=O)N[C@@H](CCNC(=O)[C@@H](N)CCCCNC(=O)[C@H](CCCCNC(C)=O)NC(=O)CC[C@H](N)C(N)=O)C(=O)NCC(N)=O)NC(=O)[C@H](CC(N)=O)NC(=O)[C@H](CCC(N)=O)NC1=O [Compound M1] (H-CFIQNCP[Dab]([εLys-X1])G-NH2; disulfide 1-6) in your answer.
6.71 ng·h/mL

---

# assay_conditions: human, in vivo, sc, 0.1 mg, M1 Cmax, min
Starred links: 1 amine or outer side, 2 acyl side, 3 side chain; linkers in the order of their positions; H or OH if unused. Positions of bridges follow the written chain, without caps; N, C: chain ends. Non-standard residues stand in square brackets, D forms with d. Residues, ends and D or L forms follow the SMILES beside them. Groups on a side chain read outwards from the residue. *: point of attachment. X1 = CC(=O)NCCCC[C@H](NC(=O)CC[C@H](N)C(N)=O)C(=O)*; εLys = N[C@@H](CCCCN[*:1])C(=O)[*:2]; Dab = NCC[C@H](N)C(=O)O
reported_property: Cmax (ng/mL)
Field format: number, assumed ng/mL, no unit text.

Name the recorded Cmax of the item CC[C@H](C)[C@@H]1NC(=O)[C@H](Cc2ccccc2)NC(=O)[C@@H](N)CSSC[C@@H](C(=O)N2CCC[C@H]2C(=O)N[C@@H](CCNC(=O)[C@@H](N)CCCCNC(=O)[C@H](CCCCNC(C)=O)NC(=O)CC[C@H](N)C(N)=O)C(=O)NCC(N)=O)NC(=O)[C@H](CC(N)=O)NC(=O)[C@H](CCC(N)=O)NC1=O [Compound M1] (H-CFIQNCP[Dab]([εLys-X1])G-NH2; disulfide 1-6) in your answer.
0.7
